Value source: patent US20230079045A1

- System: IFVA/Weiss/43
- test name: cytopathic effect (CPE) antiviral test in MDCK cells, IFVA/Weiss/43
- Format: cell-based, influenza virus
- test conditions: unidentified influenza virus, MDCK, 120 h, read-out: EC50(IFVA/Weiss/43), MDCK cells, CPE method, CCK-8 cell viability, 5 days
quantity measured: pEC50
In textbook form, pEC50 equals minus log to base ten of the concentration in mol/L.

Fill blank: measured pEC50 of the compound CC(=O)Nc1cc(F)c2oc(-c3ccnc(C(=O)N4CCN(C(c5ccccc5)c5nnn(C(F)F)n5)CC4)c3)nc2c1 (stereo not drawn) [Compound 61] is ____.
7.55

Fill blank: measured pEC50 of the compound O=C(Nc1ccc2nc(-c3ccnc(C(=O)N4CCN(C(c5ccccc5)c5nnn(C(F)F)n5)CC4)c3)oc2c1)[C@@H]1CC1(F)F (mixture of isomers) [Compound 103] is ____.
8.15

Fill blank: measured pEC50 of the compound CC(=O)Nc1cc2nc(-c3ccnc(C(=O)N4CCN(C(c5ccccc5)c5nnn(C(F)F)n5)CC4)c3)oc2cc1F (stereo not drawn) [Compound 59] is ____.
7.25

Fill blank: measured pEC50 of the compound O=C(Nc1ccc2oc(-c3ccnc(C(=O)N4CCN(C(c5ccccc5)c5nnn(C(F)F)n5)CC4)c3)nc2c1)[C@@H]1CC1(F)F (mixture of isomers) [Compound 29] is ____.
8.40

Fill blank: measured pEC50 of the compound CC(=O)Nc1ccc2oc(-c3ccnc(C(=O)N4CC5CCC(C4)N5C(c4ccccc4)c4nnn(C)n4)c3)nc2c1 (stereo not drawn) [Compound 1] is ____.
6.32

----------
- System: IFVA/Weiss/43
- test name: cytopathic effect (CPE) antiviral test in MDCK cells, IFVA/Weiss/43
- Format: cell-based, influenza virus
- test conditions: unidentified influenza virus, MDCK, 120 h, read-out: EC50(IFVA/Weiss/43), MDCK cells, CPE method, CCK-8 cell viability, 5 days
Can you tell me EC50 for the items I'm about to list?
All answers are understood in nM, so give the number only.

Fill blank: measured EC50 of the compound Cn1nnc(C(c2ccccc2)N2CCN(C(=O)c3cc(-c4nc5cc(N6CCCC6=O)ccc5o4)ccn3)CC2)n1 (racemic) [Compound 45] is ____.
15

Fill blank: measured EC50 of the compound CC(=O)Nc1ccc2oc(-c3ccnc(C(=O)N4CCN(C(c5ccccc5)c5nnn(C(F)F)n5)CC4)c3)nc2c1 (stereo not drawn) [Compound 40] is ____.
16

Fill blank: measured EC50 of the compound CC(=O)Nc1ccc2oc(-c3ccnc(C(=O)C4CCN(C(c5ccccc5)c5nnn(C(F)F)n5)CC4)c3)nc2c1 (racemic) [Compound 42] is ____.
20

Fill blank: measured EC50 of the compound CC(=O)Nc1ccc2oc(-c3ccnc(C(=O)N4CCN(C(c5nnn(C)n5)c5ccccc5F)CC4)c3)nc2c1 (stereo not drawn) [Compound 9] is ____.
126

Fill blank: measured EC50 of the compound O=C(c1cc(-c2nc3cc(-c4cnsc4)ccc3o2)ccn1)N1CCN(C(c2ccccc2)c2nnn(C(F)F)n2)CC1 (racemic) [Compound 101] is ____.
4

Fill blank: measured EC50 of the compound Cc1nnn(C(c2ccccc2)C2CCN(C(=O)c3cc(-c4nc5cc(NC(=O)[C@@H]6C[C@@H]6F)ccc5o4)ccn3)CC2)n1 (stereo partly drawn) [Compound 85] is ____.
4
